# Tested on: ACHN
# assay summary: NCI tumour cell line growth inhibition, 48 h
Active and inactive are the calls of the source. Rule as the data show it: active = GI50 up to about 1.1 µM and inactive = higher.
Could you please pick one outcome from this set? TRUE for active, FALSE for inactive

Look up the recorded call for CS(=O)(=O)NNS(=O)(=O)c1ccc(Br)cc1 in this test.
FALSE

For O=C(/C=C/c1ccc2ccccc2c1)NCc1ccc(C(=O)NCCc2ccccc2)cc1 , what call appears in the results of this test?
FALSE

Record lookup: outcome of this test for CC(=O)NNC(=O)C1CCCCN1 (centres undefined) ?
FALSE

What did this assay record as the result for O=C1/C(=C/c2ccc3c(c2)OCCO3)CCC/C1=C\c1ccc2c(c1)OCCO2 ?
FALSE

State the result this test recorded for CC1(C)OC(COP2OCCO2)[C@H](COP2OCCO2)O1 (some centres undefined) .
FALSE

Dear colleague, could you share the recorded outcome for CCOc1ccccc1N1CSc2nnc(-c3ccccc3)n2C1 when you have a moment?
FALSE

What classification did O=[N+]([O-])c1cc([As](Br)c2ccc(O)c([N+](=O)[O-])c2)ccc1O end up with in this test?
FALSE

What outcome does the record of this test show for CCOC(=O)NC(=O)c1cn(CCCCCOC(=O)NCCCCCCNC(=O)OCCCCCn2cc(C(=O)NC(=O)OCC)c(=O)[nH]c2=O)c(=O)[nH]c1=O ?
FALSE

Could you check what this test reported for O=C1c2ccccc2C(=O)C2C1C1C(=O)c3ccccc3C(=O)C21 (centres undefined) ?
FALSE

Called result for C/C=C(\C)c1cc(=O)c2c(C)cc3c(c2o1)C(=O)c1c(O)c(C2CC(C)(N(C)C)C(OC(C)=O)C(C)O2)cc(C2CC(N(C)C)C(O)C(C)O2)c1C3=O (centres undefined)
TRUE

How was COc1ccc(/N=N/c2c(C)c(C#N)c(=S)n(C3OC(COC(C)=O)C(OC(C)=O)C(OC(C)=O)C3OC(C)=O)c2C)cc1 (centres undefined) classified in this test?
FALSE

# fetch the recorded call for Nc1c(F)c(F)c2c(c1F)N(CCCCCl)c1ccccc1S2 here
FALSE

Please let me know the test result on file for CN(Cc1cnc2nc(N)nc(N)c2n1)c1ccc(C(=O)NCS(=O)(=O)O)cc1 .
FALSE

Check the results log: what was the call for COC(=O)C(N)CCCC(N)C(=O)NC(C)C(=O)NC(CCC(=O)NCCNCCNc1c2ccccc2nc2cccc([N+](=O)[O-])c12)C(N)=O (centres undefined) ?
FALSE

Hi, do you know how CC(=O)OCC1OC(Sc2nc(-c3ccccc3)c(C#N)c(=O)n2C2OC(COC(C)=O)C(OC(C)=O)C(OC(C)=O)C2OC(C)=O)C(OC(C)=O)C(OC(C)=O)C1OC(C)=O (centres undefined) came out in this test?
FALSE

In this assay, the call recorded for COc1cccc2c1C(=O)c1ccc3cc(CCl)cc(O)c3c1C2=O was what?
TRUE

Could you check what this test reported for CC(C)n1c(=O)[nH]n(-c2ccccc2)c1=O ?
FALSE

Recorded call for COc1ccccc1NC(=S)N/N=C1\C(=O)Nc2ccccc21 ?
FALSE

What was the test verdict on CC1(C)COC(c2cccc(C(=O)c3ccccc3)c2)=N1 ?
FALSE

====

Task for the reader: assign each of the following compounds its reported GI50.
# Tested on: 786-0
# assay summary: NCI tumour cell line growth inhibition, 48 h
Structures can show the parent of a compound that is named as a salt. Activity calls are given as the source filed them. Cut-off read from the data, not from the text of the source: active = GI50 up to about 1.1 µM and inactive = higher.

Please look up its GI50: CCOC(=O)/C(=C\NC(=S)Nc1ccc(OCC)cc1)C(=O)c1ccccc1
> 100 µM (inactive)

I would be grateful if you could share the reported GI50 for CC1c2c(Cl)nc3ccccc3c2Oc2c1c(Cl)nc1ccccc21 .
49.1 µM (inactive)

Quick one: GI50 for Cn1cc(NC(=O)Nc2cc(C(=O)Nc3cc(C(=O)Nc4ccc(S(=O)(=O)O)c5cc(S(=O)(=O)O)ccc45)n(C)c3)n(C)c2)cc1C(=O)Nc1cc(C(=O)Nc2ccc(S(=O)(=O)O)c3cc(S(=O)(=O)O)ccc23)n(C)c1 ?
> 100 µM (inactive)

Please report the recorded GI50 for Clc1cc2ncn(C3CCCO3)c2cc1Cl (stereo not given) .
> 100 µM (inactive)

Find the recorded GI50 belonging to NCCCCC(N)C(=O)N1CCN(c2nc(N3CCCC3)c3nc(Cl)c(NCc4ccccc4)nc3n2)CC1 (stereo not given) and report it.
17.8 µM (inactive)

Consider the compound CCOC(=O)c1nnc2c(C(=O)OCC)c3ccccc3n2c1N and give its measured GI50.
67 µM (inactive)

Query (compound): NN(CC(=O)O)CC(=O)O ; field requested: GI50
> 100 µM (inactive)

GI50 lookup needed for CCn1c(=O)nc2n(-c3ccc(SC)cc3)c3ccccc3nc-2c1=O , thanks.
> 100 µM (inactive)

Given the compound CCOC(=O)Cn1c(=O)c2cc(-c3ccccc3)cc3c(Cl)nc4c(OC)c(OC)cc1c4c32 , what is its reported GI50?
14.8 µM (inactive)

Sample Oc1ccc(C(O)C2CCCCN2)cc1O (stereo not given) [RIMITEROL HYDROBROMIDE] — what was its GI50?
18.9 µM (inactive)

Entry Cc1cc2c(C)cc(=O)[nH]c2cc1N : reported GI50 = ?
> 100 µM (inactive)

Could you tell me which GI50 is on file for O=c1cc(/C=C/c2ccccc2)c2ccc(O/C(=C\c3ccccc3)c3nc4ccccc4c(=O)o3)cc2o1 ?
44.3 µM (inactive)

Consider the compound O=C1CNCCCN2CCN(CCCNCC(=O)Nc3ccc(cc3)S(=O)(=O)c3ccc(cc3)NC(=O)CNCCCN3CCN(CCCNCC(=O)Nc4ccc(cc4)S(=O)(=O)c4ccc(cc4)N1)CC3)CC2 and give its measured GI50.
16.3 µM (inactive)

For COC(=O)C1CCC(=O)N1C(c1ccc2c(c1)OCO2)c1ccc2c(c1)OCO2 (stereo not given) , what is its reported GI50?
> 100 µM (inactive)

// returns reported GI50 for input CC1(C)C2=CCCC(=O)[C@@]2(C)CC[C@@H]1O
> 100 µM (inactive)

Would you mind telling me what GI50 value was observed for CC1=NN(c2nc(N)nc(/C(C#N)=C/c3cccn3-c3cc(Cl)cc(Cl)c3)n2)C(C)(C)C1 ?
> 100 µM (inactive)

For the compound CC1(C)CCCC2CC2CCC(C)(C)C1=O (stereo not given) , what GI50 is on record?
28.8 µM (inactive)

Param item = C=CCN1CCC(OC(=O)C(O)(/C=C\CC)C2CCCC2)CC1 (stereo not given) ; retrieve measured GI50.
> 100 µM (inactive)

Look up GI50 for this compound: CC(=O)Nc1ccccc1NC1CC(C)N(c2ccccc2)N1C(C)=O (stereo not given)
> 10 µM (inactive)

What GI50 value was documented for this compound, Nc1c(F)c(F)c2c(c1F)N(CCCCCl)c1ccccc1S2 ?
> 100 µM (inactive)
